In this section, each of the binders is paired with its reported EC50.
- assay system: T1, human PD-1 extracellular domain fused with human Fc tag (hPD-1-hFc) (human)
- T1 construct: also called human PD-1-hFc
- T1 sequence (chain, as listed by the source limits assumed): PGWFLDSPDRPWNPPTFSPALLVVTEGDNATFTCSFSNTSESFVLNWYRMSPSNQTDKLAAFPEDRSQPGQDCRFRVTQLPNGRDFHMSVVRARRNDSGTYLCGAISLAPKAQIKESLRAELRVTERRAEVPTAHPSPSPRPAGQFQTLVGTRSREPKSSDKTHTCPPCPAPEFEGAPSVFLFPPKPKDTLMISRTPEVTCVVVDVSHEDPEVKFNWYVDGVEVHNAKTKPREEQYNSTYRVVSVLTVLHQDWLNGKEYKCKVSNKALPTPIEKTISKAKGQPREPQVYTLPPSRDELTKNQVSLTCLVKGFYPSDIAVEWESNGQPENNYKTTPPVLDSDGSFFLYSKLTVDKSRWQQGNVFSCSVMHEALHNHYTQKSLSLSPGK
- test name: ELISA binding (summary table)
- Protocol: ELISA binding analysis was conducted based on human PD-1-hFc Protein. 96-well plates (Costar, Cat No:9018) were coated with 100 μL of 2 μg/ml PD1-hFc (CrownBio) in coating buffer (PBS, Hyclone, Cat No:SH30256.01B) overnight at 4° C. […] The colorimetric signals were developed and read at 450 nm using a Auto Plate SpectraMax Plus (Supplier: Molecular Devices; Model: MNR0643; Software: SoftMax Pro v5.4). […]
Just the number in ng/mL, nothing appended.

// known answers, use as guide
1) 7A4 murine anti-PD-1 antibody (antibody, V domains shown, Purified hybridoma antibody; also called 7A4-mIgG1) VH: QIHLVQSGPELKKPGETVKISCKASGYTFTNFGMNWVKQAPGKGLKWMGWISGYTREPTYAADFKGRFAISLETSASTAYLQINDLKNEDMATYFCARDVFDYWGQGTTLTVSS VL: DIVLTQSPASLAVSLGQRATISCRASESVDNYGYSFMNWFQQKPGQPPKLLIYRASNLESGIPARFSGSGSRTNFTLTINPVEADDVATYFCQQSNADPTFGGGTNLEIKR
9.32
2) 14A6 murine anti-PD-1 antibody (antibody, V domains shown, Purified hybridoma antibody; also called 14A6-mIgG1) VH: DVQLQESGPGLVKPSQSLSLTCTVTGYSITSDYAWNWIRQFPGNQLEWMAYISYSGYTSYNPSLKSRISITRDTSRNQFFLQLNSVTTEDTATYYCARSLDYDYGTMDYWGQGTSVTVSS VL: QIVLSQSPAILSASPGEKVTMTCRANSSVSSMHWYQQKPGSSPEPWIYAISNLAFGVPARFSGSGSGTSYSLTISRVEAEDAATYFCQQWNSRPPTFGGGTKLEIKR
7.07

// 4C10 murine anti-PD-1 antibody (antibody, V domains shown, Purified hybridoma antibody; also called 4C10-mIgG1) VH: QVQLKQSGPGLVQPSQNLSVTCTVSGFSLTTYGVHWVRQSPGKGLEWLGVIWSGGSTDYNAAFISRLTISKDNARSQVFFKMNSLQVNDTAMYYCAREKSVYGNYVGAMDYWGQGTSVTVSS VL: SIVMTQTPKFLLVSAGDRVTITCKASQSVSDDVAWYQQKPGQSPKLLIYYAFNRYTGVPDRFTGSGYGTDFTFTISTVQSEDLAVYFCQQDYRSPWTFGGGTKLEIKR : EC50 value = 13.2

Measured values drawn from patent US20170267762A1 for this set.
